Target: Butyrylcholinesterase (Rattus norvegicus)
Assay: Inhibition of rat serum BuChE using butyrylthiocholine iodide as substrate at 50 uM after 15 mins by Ellman's method
Entry flag: true if inhibition reaches 10%; false if it does not.

# bool: inhibition of CCN(CCCCCCOc1cc(O)c2c(=O)c(-c3ccc(O)cc3)coc2c1)Cc1ccccc1OC >= 10%
false

Please tell me: is the molecule CCN(CCCCOc1ccc(-c2coc3cc(O)cc(O)c3c2=O)cc1)Cc1ccccc1OC at or over 10% in terms of inhibition?
false

Decide: is the reported value of inhibition for CCN(CCCOc1ccc(-c2coc3cc(O)cc(O)c3c2=O)cc1)Cc1ccccc1 equal to or greater than 10%?
true

Could you verify whether the entry COc1ccccc1CN(C)CCCOc1ccc(-c2coc3cc(O)cc(O)c3c2=O)cc1 shows inhibition of no less than 10%?
false

Given CCN(CCCCCCOc1ccc(-c2coc3cc(OCCCCCCN(CC)Cc4ccccc4OC)cc(O)c3c2=O)cc1)Cc1ccccc1OC , state whether its inhibition is at least 10%.
true

Please tell me: is the molecule CCN(CCCOc1cc(O)c2c(=O)c(-c3ccc(O)cc3)coc2c1)Cc1ccccc1OC at or over 10% in terms of inhibition?
false

* * *

Target: Acetylcholinesterase (Electrophorus electricus)
Sequence (O42275 whole entry): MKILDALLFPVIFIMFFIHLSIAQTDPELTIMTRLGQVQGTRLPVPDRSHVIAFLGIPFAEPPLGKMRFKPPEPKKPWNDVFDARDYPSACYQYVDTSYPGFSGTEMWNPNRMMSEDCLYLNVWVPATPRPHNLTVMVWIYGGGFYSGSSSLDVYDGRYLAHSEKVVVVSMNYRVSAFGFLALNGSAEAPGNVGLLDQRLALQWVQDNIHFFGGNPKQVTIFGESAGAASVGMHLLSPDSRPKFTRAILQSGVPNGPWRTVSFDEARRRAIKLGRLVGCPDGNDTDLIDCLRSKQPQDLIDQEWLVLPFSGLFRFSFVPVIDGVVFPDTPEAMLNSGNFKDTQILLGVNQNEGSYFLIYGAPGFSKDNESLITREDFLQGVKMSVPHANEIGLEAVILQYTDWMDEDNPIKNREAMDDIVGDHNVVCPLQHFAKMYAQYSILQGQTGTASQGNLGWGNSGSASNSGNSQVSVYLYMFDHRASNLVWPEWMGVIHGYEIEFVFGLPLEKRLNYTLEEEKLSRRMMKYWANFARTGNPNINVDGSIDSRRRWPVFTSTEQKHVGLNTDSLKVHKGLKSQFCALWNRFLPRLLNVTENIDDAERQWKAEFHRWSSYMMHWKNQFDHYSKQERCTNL
OBSERVED PROPERTY: Ki (nM)
Report the value in nM with no unit label.

Quick check: Ki on Acetylcholinesterase (Electrophorus electricus), item CCN(CCCCOc1ccc(-c2coc3cc(OCCCCN(CC)Cc4ccccc4OC)cc(O)c3c2=O)cc1)Cc1ccccc1OC ?
140

* * *

Target: Amyloid-beta precursor protein (Homo sapiens)
Test: Inhibition of Cu2+-induced amyloid beta (1 to 42) (unknown origin) aggregation at 25 uM after 24 hrs by thioflavin T fluorescence method
In this section, each of the molecules is paired with its reported inhibition.
Give the value in % but do not write % after it.

Study these solved cases before continuing.
CCN(CCCCOc1ccc(-c2coc3cc(OCCCCN(CC)Cc4ccccc4OC)cc(O)c3c2=O)cc1)Cc1ccccc1OC
77.8
CCN(CCCCOc1ccc(-c2coc3cc(O)cc(O)c3c2=O)cc1)Cc1ccccc1OC
71.9
COc1cc(/C=C/C(=O)CC(=O)/C=C/c2ccc(O)c(OC)c2)ccc1O
64

Moving on to the next molecule.
Form: Entry = CCN(CCCCCCOc1cc(O)c2c(=O)c(-c3ccc(O)cc3)coc2c1)Cc1ccccc1 | System = Amyloid-beta precursor protein (Homo sapiens) | inhibition = ____
72.1

* * *

Target: UniProt:O42275
OBSERVED PROPERTY: pIC50
Lab note: report pIC50 as minus log10 of the concentration in molar units, number only.

CCN(CCCCCCOc1ccc(-c2coc3cc(OCCCCCCN(CC)Cc4ccccc4OC)cc(O)c3c2=O)cc1)Cc1ccccc1OC
5.42
CCN(CCCOc1ccc(-c2coc3cc(OCCCN(CC)Cc4ccccc4OC)cc(O)c3c2=O)cc1)Cc1ccccc1OC
6.80
CCN(CCCCOc1ccc(-c2coc3cc(O)cc(O)c3c2=O)cc1)Cc1ccccc1OC
4.80
CCN(CCCCCCOc1cc(O)c2c(=O)c(-c3ccc(O)cc3)coc2c1)Cc1ccccc1
5.30

Form field - read-out: pIC50; system: UniProt:O42275; submitted item: CCN(CCCCOc1ccc(-c2coc3cc(OCCCCN(CC)Cc4ccccc4OC)cc(O)c3c2=O)cc1)Cc1ccccc1OC
6.85
